Where these numbers come from: patent US20230183354A1

Catalogue of % binding of the fluorescently labeled mAb (IgG pre-incubation = 100) values
- measured.on: T1, human CD103 (integrin Alpha-E) / human integrin Beta-7 heterodimer on cells (human, UniProt P38570 19-1179; P26010 20-798)
- T1 construct: the assay field tells which cells; also called hCD103/hBeta7; CHO.K1-hCD103/hBeta7
- assay.notes: flow cytometry competition on CD103+CD8+ T cells; pre-incubation with unlabeled 03A; table n=2
Give the value in % but do not write % after it.

Some entries whose results are on file:
{"columns": ["binder", "observed.measurement"],
 "data": [
  ["hCD103.01A (antibody, V domains shown, Also tested labelled with AF647, conjugated with Df and labelled with 89Zr; these are written under this molecule; also called clone 01A; hCD103.01 mAb) VH: EVQLQESGPSLVKPSQTLSLTCSVTGDSITSGYWNWIRKFPGNKLEYMGYITYSGSTYYNPSLKSRISITRDTSKNQYYLQLNSVTTEDTATYYCTRHYYGSDAMDYWGQGTSVTVSS VL: DIVMTQSHKFMSTSVGDRVSITCKASQDVSIAVAWYQQRPGQSPKLLIYSASYRYTGVPDRFTGSGSGTDFTFTISSVQAEDLAVYYCQQHYSTPWTFGGGTKLEIK", 97.3],
  ["hCD103.07A (antibody, mouse IgG1, V domains shown, also called clone 07A) VH: EVQLQESGPSLVKPSQTLSLTCSVTGDSITSGYWNWIRKFPGNKLEYMGYITYSGSTYYNPSLKSRISITRDTSKNQYYLQLNSVTTEDTATYYCARNYYGSSSMDYWGQGTSVTVSS VL: DIVMTQSQKFMSTSVADRVSVTCKASQNVGSDVAWYQQKPGQSPKSLIYSASYRYSGVPDRFTGSGSGTDFTLTISNVQSEDLAEYFCQQYNSYPSTFGGGTKLEIK", 77.8],
  ["hCD103.05A (antibody, mouse IgG1, V domains shown, Also tested labelled with AF647, conjugated with Df and labelled with 89Zr; these are written under this molecule; also called clone 05A; hCD103.05 mAb) VH: EVQLQQSGPELEKPGASAKISCKASGYSFTGYNMNWVKQSNGKSLEWIGNIDPYYGGTSYNQKFKGKATLTVDKSSSTAYMQLKSLTSEDSAVYYCARSFYGYDAGSPYNYAMDYWGQGTPVTVSP VL: DIVMTQSHKFMSTSVGDRVSITCKASQDVGTFVAWYQQKPGQSPKLLIYWASTRHTGVPDRFTGSGSGTDFTLTISNVQSEDLADYFCHQYSSYPYTFGGGTQLEIK", 90.9]
]}

Task: Give % binding of the fluorescently labeled mAb (IgG pre-incubation = 100) for hCD103.06A (antibody, mouse IgG1, V domains shown, also called clone 06A; hCD103.06 mAb) VH: QVQLQQPGSELVRPGASVKLSCKASGYTFTSYWMHWVKQRHGQGLEWIGNIYPGSGSTNYDEKFKSKGTLTVDTSSSTAYMHLSSLTSEDSAVYYCTRGVYDNPYYFDYWGQGTTLTVSS VL: DIQMTQSSSNLSVSLGGRVTITCKASDHINNWLAWYQQKPGNAPRVLISGATSLETGVPSRFSGSGSGKDYTLSITSLQTEDVATYYCQQYWSIPLTFGAGTKLELK
Result: 108
